- assayed-system: human CGRP receptor (Homo sapiens, UniProt O60894+Q16602)
- Construct: SK-N-MC cells that endogenously express the human CGRP receptor; endogenous in cells
- assay-comment: Radioligand binding assay, [125I]-CGRP competition on SK-N-MC cell homogenates
- stated-conditions: Binding data, [125I]-CGRP 40 pM, room temperature
- Procedure: Tissue culture. SK-N-MC cells were grown at 37° C. in 5% CO2 as a monolayer in medium consisting of MEM with Earle's salts and L-glutamine (Gibco) supplemented with 10% fetal bovine serum (Gibco). Radioligand binding assays. Cells were rinsed twice with phosphate-buffered saline (155 mM NaCl, 3.3 mM Na2HPO4, 1.1 mM KH2PO4, pH 7.4), and incubated for 5-10 min. at 4° C. in hypotonic lysis buffer consisting of 10 mM Tris (pH 7.4) and 5 mM EDTA. […]
Sorting guide: entries reporting IC50 beneath 200 nM go in the T pile, the rest go in the F pile.

CC(=O)c1ccc(NC(=O)N2CCC(=O)N3[C@@H]2CN(CCc2cccc(F)c2)C(=O)[C@@H]3Cc2c(F)c(F)c(F)c(F)c2F)cc1 [Compound 57]    F
CC(=O)c1ccc(NC(=O)N2CCC(=O)N3[C@@H]2CN(CCc2cccc(F)c2)C(=O)[C@@H]3CC(C)C)cc1 [Compound 23]    T
CC(=O)c1ccc(NC(=O)N2CCC(=O)N3[C@@H](C4CCCCC4)C(=O)N(CCc4cccs4)C[C@H]23)cc1 [Compound 138]    T

Exercise: Does this molecule meet the criterion IC50 < 200 nM? CC[C@H](C)[C@H]1C(=O)N(CCc2cccc(F)c2)C[C@@H]2N(C(=O)Nc3ccc(C(C)=O)cc3)CCC(=O)N12 (stereo in doubt) [Compound 47]
Solution: T

Exercise: Here is the next molecule: CC(=O)c1ccc(NC(=O)N2CCC(=O)N3[C@@H]2CN(CCc2cccc(F)c2)C(=O)[C@@H]3Cc2ccc(F)c(F)c2)cc1 [Compound 62]
Solution: F

Exercise: Can you check CC(=O)c1ccc(NC(=O)N2CCC(=O)N3C(CSCc4ccccc4)C(=O)N(CCc4cccc(F)c4)C[C@H]23)cc1 (stereo in doubt) [Compound 41] next?
Solution: F
